# Study system: T1, P6-AA-12HGe-A
# T1 chain: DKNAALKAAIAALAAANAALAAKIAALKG
# Test name: two-hybrid library CCmax;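 also: natural log of median RNA to DNA barcode read ratio; higher means stronger binding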
# Condition context: mean of both orientations
Measurement type: interaction score
No unit in the answer, only the number.

> print(dat)
                                     binder   measurement.type  meas.value
1  DENAALEAEIAALEAENAALEAEIAALEG [P5-AA-12HGe-E]  interaction score        1.23
2  DENAALEAHIAALHAHNAALHAEIAALEG [P5-AA-12HGe-H]  interaction score       -1.29
3  DENAALEAQIAALQAQNAALQAEIAALEG [P5-AA-12HGe-Q]  interaction score        1.19

--- query ---
**Query** Entry DENAALEADIAALDADNAALDAEIAALEG [P5-AA-12HGe-D] has what interaction score?
**Result** -1.85

Ref: paper PMC10397247
